Catalogue of binders with associated log IC50
- assay_target: T1, human GIP receptor (human, UniProt P48546 22-466)
- T1 construct: whole, on cells; also called hGIPR
- T1 sequence (looked up): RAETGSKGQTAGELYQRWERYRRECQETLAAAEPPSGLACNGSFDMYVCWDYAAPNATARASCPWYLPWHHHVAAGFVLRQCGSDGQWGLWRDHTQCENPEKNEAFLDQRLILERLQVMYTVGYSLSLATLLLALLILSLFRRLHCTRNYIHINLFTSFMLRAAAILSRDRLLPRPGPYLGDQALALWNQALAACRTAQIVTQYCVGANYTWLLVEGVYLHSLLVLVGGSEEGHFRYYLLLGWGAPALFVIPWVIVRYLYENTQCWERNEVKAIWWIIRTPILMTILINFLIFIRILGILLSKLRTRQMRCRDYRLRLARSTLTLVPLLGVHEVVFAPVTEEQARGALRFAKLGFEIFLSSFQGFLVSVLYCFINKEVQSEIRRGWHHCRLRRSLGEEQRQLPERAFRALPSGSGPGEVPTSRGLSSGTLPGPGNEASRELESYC
- measurement_notes: 125I-hGIP competition binding, COS-7 cells expressing hGIPR;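 further: nonspecific binding taken as radioligand bound by untransfected cells, binding buffer with or without 2% HSA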
Ends that are not written are not given here. * marks the point of attachment. Lauroyl = CCCCCCCCCCCC(=O)*
Note: state the figure and append the unit.

Sample records with log IC50:
{"binder": "TFISDYSIAMDK(C18 fatty acyl)IHQQDFVNWLLAQK-NH2 [AT128 [hGIP(5-30)NH2-C18/16]]", "experimental_result": "-6.3 log M"}
{"binder": "Lauroyl-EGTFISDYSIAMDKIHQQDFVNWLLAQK-NH2 (printed with the same formula as AT101 but a different ID and different values) [AT148 [hGIP(3-30)NH2-C12/3]]", "experimental_result": "-8 log M"}

Now look at this entry.
# log IC50 lookup, item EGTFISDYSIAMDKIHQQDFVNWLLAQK(Lauroyl)-NH2 [AT103 [hGIP(3-30)NH2-C12/30]]
-5.3 log M
